Parameter kcat: see the listing below.
target: human recombinant APAO (Homo sapiens); construct: made in house; assay: Substrate kinetics with human recombinant APAO (HPLC of reaction products); type: biochemical; settings: 100 mM Glycine-NaOH pH 9.5, 5 mM DTT
Field: numeric (s⁻¹). Do not append units.

# molecule, measured_metric, value_observed
records = [
    ("C[C@@H](CCNCCCCN)NC(=O)c1ccccc1 [Bz-(S)-MeSpd]", "kcat", 0.03),
    ("C[C@H](CCNCCCCN)NC(=O)c1ccncc1 [P4-(R)-MeSpd]", "kcat", 5.2),
    ("C[C@H](CCNCCCCN)NC(=O)c1ccccc1 [Bz-(R)-MeSpd]", "kcat", 4.6),
    ("C[C@@H](CCNCCCCN)NC(=O)c1ccncc1 [P4-(S)-MeSpd]", "kcat", 0.01),
    ("C[C@@H](CCNCCCCN)NCc1ccccc1 [Bn-(S)-MeSpd]", "kcat", 0.03),
]

Continue with the molecule presented below.
q: Given the molecule C[C@H](CCNCCCCN)NCc1ccccc1 [Bn-(R)-MeSpd] , what is its reported kcat?
a: 0.14

---

target: Fms1 (Saccharomyces cerevisiae); experiment: Fms1 cleavage of 1 mM Spd supplemented with aldehydes (E1/E2 regioselectivity); assay type: biochemical, yeast; parameters: made in house; conditions: fixed 1 mM Spd, aldehyde 25-1000 μM, pH 9.0, 25°C
Sequence (P50264 whole entry): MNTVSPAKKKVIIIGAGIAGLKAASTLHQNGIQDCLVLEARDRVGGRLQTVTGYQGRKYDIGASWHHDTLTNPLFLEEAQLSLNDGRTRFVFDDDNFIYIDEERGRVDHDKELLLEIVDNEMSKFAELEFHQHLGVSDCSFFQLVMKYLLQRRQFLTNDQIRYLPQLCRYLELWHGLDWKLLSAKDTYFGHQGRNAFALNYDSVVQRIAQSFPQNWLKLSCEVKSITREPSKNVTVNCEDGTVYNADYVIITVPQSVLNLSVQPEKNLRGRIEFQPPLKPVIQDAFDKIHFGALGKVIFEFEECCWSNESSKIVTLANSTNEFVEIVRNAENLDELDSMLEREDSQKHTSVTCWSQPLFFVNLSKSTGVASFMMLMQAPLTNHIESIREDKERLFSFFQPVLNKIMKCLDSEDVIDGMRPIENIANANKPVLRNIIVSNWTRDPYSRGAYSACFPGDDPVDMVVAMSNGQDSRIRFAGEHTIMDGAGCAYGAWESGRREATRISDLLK
# strict inequality: Ratio of E1/E2 < 5 yields true (1), everything else yields false (0)

Here are 5 molecules together with their reported answers.
# molecule, group
records = [
    ("O=Cc1cccnc1 [C00006]", "false (0)"),
    ("O=Cc1ccncc1 [C00005]", "false (0)"),
    ("O=Cc1cccc(O)c1 [C00003]", "true (1)"),
    ("O=Cc1ccccc1O [C00002]", "false (0)"),
    ("O=Cc1ccc(O)cc1 [C00004]", "false (0)"),
]

q: Consider the molecule O=CC1CCCCC1 [C00010] . Is its Ratio of E1/E2 strictly less than 5?
a: false (0)

q: What would you report for O=Cc1ccc([N+](=O)[O-])cc1 [C00012] ?
a: false (0)

q: What would you report for O=Cc1ccccn1 [C00007] ?
a: true (1)

---

target: human recombinant APAO (Homo sapiens, UniProt Q6QHF9); construct: made in house; experiment: Substrate kinetics with human recombinant APAO (HPLC of reaction products); assay type: biochemical; conditions: 100 mM Glycine-NaOH pH 9.5, 5 mM DTT
Sequence (Q6QHF9 whole entry): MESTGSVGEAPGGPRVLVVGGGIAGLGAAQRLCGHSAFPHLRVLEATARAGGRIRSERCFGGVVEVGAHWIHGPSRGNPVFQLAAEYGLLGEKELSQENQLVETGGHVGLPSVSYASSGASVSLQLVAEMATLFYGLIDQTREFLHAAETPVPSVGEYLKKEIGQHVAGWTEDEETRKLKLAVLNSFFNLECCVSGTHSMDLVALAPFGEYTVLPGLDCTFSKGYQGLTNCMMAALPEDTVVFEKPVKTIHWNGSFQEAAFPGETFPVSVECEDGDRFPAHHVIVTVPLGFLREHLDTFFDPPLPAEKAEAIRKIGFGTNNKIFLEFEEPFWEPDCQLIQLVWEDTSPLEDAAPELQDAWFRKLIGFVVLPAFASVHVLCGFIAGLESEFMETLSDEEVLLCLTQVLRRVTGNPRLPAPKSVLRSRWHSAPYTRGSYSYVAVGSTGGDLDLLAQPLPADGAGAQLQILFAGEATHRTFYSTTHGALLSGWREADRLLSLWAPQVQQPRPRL
measured_metric: Km (µM)
Field: numeric (µM). Do not append units.

Consider the worked cases shown below.
# compound, Km / µM
records = [
    ("C[C@@H](CCNCCCCN)NC(=O)c1ccncc1 [P4-(S)-MeSpd]", 0.8),
    ("C[C@@H](CCNCCCCN)NCc1ccccc1 [Bn-(S)-MeSpd]", 1.6),
    ("C[C@H](CCNCCCCN)NCc1ccccc1 [Bn-(R)-MeSpd]", 2),
    ("C[C@H](CCNCCCCN)NC(=O)c1ccccc1 [Bz-(R)-MeSpd]", 1.2),
    ("C[C@H](CCNCCCCN)NC(=O)c1ccncc1 [P4-(R)-MeSpd]", 3.6),
]

q: Given the compound C[C@@H](CCNCCCCN)NC(=O)c1ccccc1 [Bz-(S)-MeSpd] , what is its reported Km?
a: 0.2

---

Parameter kcat: see the listing below.
molecular target: UniProt P50264; assay: Substrate kinetics with recombinant Fms1 (HPLC of reaction products); settings: Supplementary Table 1, pH 9.0, 100 mM Glycine-NaOH, 25°C, Put formation
Field: numeric (s⁻¹). Do not append units.

Consider the worked cases shown below.
# molecule, system_name, value_observed
data = [
    ("CC(=O)NCCCNCCCCN [N^1-AcSpd, reference compound]", "UniProt P50264", 65),
    ("CC(=O)N[C@H](C)CCNCCCCN [N^1-Ac-(R)-MeSpd]", "UniProt P50264", 0.06),
    ("CC(=O)NC(C)CCNCCCCN (stereo not shown) [N1-Ac-MeSpd, N8-Acetyl-1,8-diamino-5-azanonane]", "UniProt P50264", 0.05),
]

Continue with the molecule presented below.
q: Given the molecule CC(=O)N[C@@H](C)CCNCCCCN [N^1-Ac-(S)-MeSpd] , what is its reported kcat?
a: 0.02

---

biological target: human recombinant APAO (Homo sapiens, UniProt Q6QHF9); construct: made in house; assay: Substrate kinetics with human recombinant APAO (HPLC of reaction products); format: biochemical; details: 100 mM Glycine-NaOH pH 9.5, 5 mM DTT
Please mark Yes if the recorded Vmax is equal to or greater than 0.1 µmol/min/mg, and No if it falls below.

# compound, group
data = [
    ("C[C@@H](CCNCCCCN)NCc1ccccc1 [Bn-(S)-MeSpd]", "No"),
    ("C[C@H](CCNCCCCN)NCc1ccccc1 [Bn-(R)-MeSpd]", "Yes"),
    ("C[C@H](CCNCCCCN)NC(=O)c1ccccc1 [Bz-(R)-MeSpd]", "Yes"),
    ("C[C@@H](CCNCCCCN)NC(=O)c1ccncc1 [P4-(S)-MeSpd]", "No"),
    ("C[C@H](CCNCCCCN)NC(=O)c1ccncc1 [P4-(R)-MeSpd]", "Yes"),
]

Please look at the following compound next.
q: Is the recorded value of Vmax equal to or greater than 0.1 µmol/min/mg for this compound? C[C@@H](CCNCCCCN)NC(=O)c1ccccc1 [Bz-(S)-MeSpd]
a: No

---

biological target: SMOX (Homo sapiens); test: Inhibition of SMOX (Ki, peroxidase-coupled fluorescence, Spm as substrate); details: Ki, non-competitive fit, 25, 50 or 100 µM Spm, pH 9.0, 37°C
Sequence (Q9NWM0 whole entry): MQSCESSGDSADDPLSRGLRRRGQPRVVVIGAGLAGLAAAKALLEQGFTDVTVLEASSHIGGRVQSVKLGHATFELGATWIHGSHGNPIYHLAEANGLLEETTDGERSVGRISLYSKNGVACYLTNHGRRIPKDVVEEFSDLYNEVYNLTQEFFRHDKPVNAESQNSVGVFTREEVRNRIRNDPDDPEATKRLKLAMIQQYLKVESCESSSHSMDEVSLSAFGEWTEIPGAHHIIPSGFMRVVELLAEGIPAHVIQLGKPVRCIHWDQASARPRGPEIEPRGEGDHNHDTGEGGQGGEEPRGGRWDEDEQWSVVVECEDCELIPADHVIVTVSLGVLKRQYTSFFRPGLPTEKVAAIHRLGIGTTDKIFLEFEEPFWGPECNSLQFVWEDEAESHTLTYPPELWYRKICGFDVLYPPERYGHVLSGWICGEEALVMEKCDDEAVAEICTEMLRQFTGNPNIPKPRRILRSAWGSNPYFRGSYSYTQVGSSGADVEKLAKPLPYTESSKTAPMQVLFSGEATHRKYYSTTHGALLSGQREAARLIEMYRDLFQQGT
pKi: −log10 of the molar value.
Please mark criterion met if the recorded pKi is equal to or greater than 3, and criterion not met if it falls below.

# molecule, group
measured = [
    ("C[C@H](CCNCCCCN)NC(=O)c1ccccc1 [Bz-(R)-MeSpd]", "criterion met"),
    ("C[C@H](CCNCCCCN)NC(=O)c1ccncc1 [P4-(R)-MeSpd]", "criterion not met"),
]

q: Is the recorded value of pKi equal to or greater than 3 for this molecule? C[C@@H](CCNCCCCN)NCc1ccccc1 [Bn-(S)-MeSpd]
a: criterion met

q: What would you report for C[C@H](CCNCCCCN)NCc1ccccc1 [Bn-(R)-MeSpd] ?
a: criterion met

---

biological target: Fms1 (Saccharomyces cerevisiae); test: Fms1 cleavage of 1 mM Spd supplemented with aldehydes (E1/E2 regioselectivity); assay type: biochemical, yeast; design: made in house; details: fixed 1 mM Spd, aldehyde 25-1000 μM, pH 9.0, 25°C
measured_metric: E1 cleavage (Put) kcat (s⁻¹)
Field: numeric (s⁻¹). Do not append units.

# molecular_string, E1 cleavage (Put) kcat, s⁻¹
data = [
    ("O=Cc1ccc([N+](=O)[O-])cc1", 0.37),
]

q: Given the compound `O=Cc1ccccc1[N+](=O)[O-]` , what is its reported E1 cleavage (Put) kcat?
a: 1.06

q: What would you report for `COc1ccc(C=O)cc1` ?
a: 0.13

q: What would you report for `O=Cc1ccccn1` ?
a: 0.49

---

target: Fms1 (Saccharomyces cerevisiae); experiment: Fms1 cleavage of 1 mM Spd supplemented with aldehydes (E1/E2 regioselectivity); format: biochemical, yeast; parameters: made in house; conditions: fixed 1 mM Spd, aldehyde 25-1000 μM, pH 9.0, 25°C;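 further: recombinant yeast Fms1 reactions in Glycine-NaOH buffer, with products Put and DAP quantified by HPLC using post-column o-phthalaldehyde derivatization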
Parameter E2 cleavage (DAP) kcat: see the listing below.
Field: numeric (s⁻¹). Do not append units.

# molecular_string, value_observed
measured = [
    ("COc1ccc(C=O)cc1", 0.22),
]

q: Given the compound `O=Cc1ccc([N+](=O)[O-])cc1` , what is its reported E2 cleavage (DAP) kcat?
a: 0.05

q: What would you report for `O=CC1CCCCC1` ?
a: 0.43
